Tested on: ChaGo-K-1
method_notes: relative viability (nuclei count vs DMSO), 5 days (fraction); higher = more cells survive
condition_description: first compound 0.3162 µM
assay_metric: relative viability
Write no unit; give the number alone.

Some solved cases for reference:
// query Missing value: relative viability, ChaGo-K-1, entry O=c1cc(N2CCOCC2)oc2c(-c3cccc4c3sc3ccccc34)cccc12 + C[C@@H](Oc1cc(-c2cnn(C3CCNCC3)c2)cnc1N)c1c(Cl)ccc(F)c1Cl [Crizotinib] (partner 1 µM) . Fill in?
// result 1.08

// query Now this one: O=c1cc(N2CCOCC2)oc2c(-c3cccc4c3sc3ccccc34)cccc12 + COc1cc2c(Oc3ccc(NC(=O)C4(C(=O)Nc5ccc(F)cc5)CC4)cc3F)ccnc2cc1OCCCN1CCOCC1 [Foretinib] (partner 0.25 µM)
// result 0.869

// query Next compound: O=c1cc(N2CCOCC2)oc2c(-c3cccc4c3sc3ccccc34)cccc12 + Nc1nc2[nH]cc(CCc3ccc(C(=O)N[C@@H](CCC(=O)O)C(=O)O)cc3)c2c(=O)[nH]1 [Pemetrexed] (partner 0.2 µM)
// result 0.259

// moving on: another record for relative viability
// query Give relative viability (ChaGo-K-1) of the following compound: CCN(CC)CCCCNc1ncc2cc(-c3cc(OC)cc(OC)c3)c(NC(=O)NC(C)(C)C)nc2n1 + CC(=O)c1c(C)c2cnc(Nc3ccc(N4CCNCC4)cn3)nc2n(C2CCCC2)c1=O [Palbociclib] (partner 0.5 µM)
// result 0.997

* * *

Test system: NCI-H1792
method_notes: relative viability (nuclei count vs DMSO), 5 days (fraction); higher = more cells survive
condition_description: first compound 1 µM
assay_metric: relative viability

// query Which relative viability is reported for this compound? O=c1cc(N2CCOCC2)oc2c(-c3cccc4c3sc3ccccc34)cccc12 + CC1(C)CCC(c2ccc(Cl)cc2)=C(CN2CCN(c3ccc(C(=O)NS(=O)(=O)c4ccc(N[C@H](CCN5CCOCC5)CSc5ccccc5)c(S(=O)(=O)C(F)(F)F)c4)cc3)CC2)C1 [Navitoclax] (partner 0.5 µM)
// result 0.556

// query What about this compound? O=c1cc(N2CCOCC2)oc2c(-c3cccc4c3sc3ccccc34)cccc12 + CC(=O)Nc1cccc(-n2c(=O)n(C3CC3)c(=O)c3c(Nc4ccc(I)cc4F)n(C)c(=O)c(C)c32)c1 [Trametinib] (partner 0.02 µM)
// result 0.458

Further cases:
// query Could you tell me which relative viability is on file for O=c1cc(N2CCOCC2)oc2c(-c3cccc4c3sc3ccccc34)cccc12 + NC(=O)Nc1cc(-c2cccc(F)c2)sc1C(=O)N[C@H]1CCCNC1 [AZD7762] (partner 0.2 µM) ?
// result 0.733

// query Subsequent entry: CCN(CC)CCCCNc1ncc2cc(-c3cc(OC)cc(OC)c3)c(NC(=O)NC(C)(C)C)nc2n1 + N=C(N)NC(=N)NCCc1ccccc1 [Phenformin] (partner 250 µM)
// result 0.168

* * *

Tested on: NCI-H522
method_notes: relative viability (nuclei count vs DMSO), 5 days (fraction); higher = more cells survive
condition_description: first compound 0.03162 µM
Reported relative viability by item:
Give only the figure.

// query Recorded relative viability for CCN(CC)CCCCNc1ncc2cc(-c3cc(OC)cc(OC)c3)c(NC(=O)NC(C)(C)C)nc2n1 + CC(=O)c1c(C)c2cnc(Nc3ccc(N4CCNCC4)cn3)nc2n(C2CCCC2)c1=O [Palbociclib] (partner 0.5 µM) , please?
// result 1.01

// query And the next one, O=c1cc(N2CCOCC2)oc2c(-c3cccc4c3sc3ccccc34)cccc12 + CCNC(=O)c1noc(-c2cc(C(C)C)c(O)cc2O)c1-c1ccc(CN2CCOCC2)cc1 [Luminespib] (partner 0.01 µM) ?
// result 1.37

// query How about O=c1cc(N2CCOCC2)oc2c(-c3cccc4c3sc3ccccc34)cccc12 + O=C(CCCCCCC(=O)Nc1ccccc1)NO [Vorinostat] (partner 1 µM) ?
// result 0.932

// query Cool, now CCN(CC)CCCCNc1ncc2cc(-c3cc(OC)cc(OC)c3)c(NC(=O)NC(C)(C)C)nc2n1 + Cc1cc(Nc2cc(N3CCN(C)CC3)nc(Sc3ccc(NC(=O)C4CC4)cc3)n2)n[nH]1 [Tozasertib] (partner 0.1 µM)
// result 0.604

***
// query Query (molecule): CCN(CC)CCCCNc1ncc2cc(-c3cc(OC)cc(OC)c3)c(NC(=O)NC(C)(C)C)nc2n1 + NC(=O)Nc1cc(-c2cccc(F)c2)sc1C(=O)N[C@H]1CCCNC1 [AZD7762] (partner 0.2 µM) ; field requested: relative viability
// result 0.831

// query Item: O=c1cc(N2CCOCC2)oc2c(-c3cccc4c3sc3ccccc34)cccc12 + N=C(N)NC(=N)NCCc1ccccc1 [Phenformin] (partner 250 µM)
// result 0.662

// query Can you handle CCN(CC)CCCCNc1ncc2cc(-c3cc(OC)cc(OC)c3)c(NC(=O)NC(C)(C)C)nc2n1 + O=C(c1cc(Cc2n[nH]c(=O)c3ccccc23)ccc1F)N1CCN(C(=O)C2CC2)CC1 [Olaparib] (partner 8 µM) next?
// result 0.544

* * *

Listing of recorded relative viability by entry.
Tested on: PC-14
method_notes: relative viability (nuclei count vs DMSO), 5 days (fraction); higher = more cells survive
condition_description: first compound 0.08 µM

Below are worked cases with known answers.
// query GET /values?readout=relative viability&item= COc1nc(C)cnc1NS(=O)(=O)c1cccnc1-c1ccc(-c2nnco2)cc1 [Zibotentan] + O=C(CCCCCCC(=O)Nc1ccccc1)NO [Vorinostat] (partner 1 µM)
// result 0.937

// query Would you kindly repeat that for COc1nc(C)cnc1NS(=O)(=O)c1cccnc1-c1ccc(-c2nnco2)cc1 [Zibotentan] + N=C(N)NC(=N)NCCc1ccccc1 [Phenformin] (partner 250 µM) ?
// result 0.692

// query Record: COc1nc(C)cnc1NS(=O)(=O)c1cccnc1-c1ccc(-c2nnco2)cc1 [Zibotentan] + Nc1ncn([C@H]2C[C@H](O)[C@@H](CO)O2)c(=O)n1 [Decitabine] (partner 2 µM)
// result 0.267

// query // same read-out, input: COc1nc(C)cnc1NS(=O)(=O)c1cccnc1-c1ccc(-c2nnco2)cc1 [Zibotentan] + Nc1nc2[nH]cc(CCc3ccc(C(=O)N[C@@H](CCC(=O)O)C(=O)O)cc3)c2c(=O)[nH]1 [Pemetrexed] (partner 0.2 µM)
// result 0.143

For the next question, use this compound.
// query Recorded relative viability for COc1nc(C)cnc1NS(=O)(=O)c1cccnc1-c1ccc(-c2nnco2)cc1 [Zibotentan] + CC(=O)c1c(C)c2cnc(Nc3ccc(N4CCNCC4)cn3)nc2n(C2CCCC2)c1=O [Palbociclib] (partner 0.5 µM) , please?
// result 0.68

* * *

Readings of relative viability for the listed compounds
Test system: NCI-H1915
method_notes: relative viability (nuclei count vs DMSO), 5 days (fraction); higher = more cells survive
condition_description: first compound 1 µM
Number only, please.

// query Query: relative viability; subject: CCN(CC)CCCCNc1ncc2cc(-c3cc(OC)cc(OC)c3)c(NC(=O)NC(C)(C)C)nc2n1 + CCNC(=O)c1noc(-c2cc(C(C)C)c(O)cc2O)c1-c1ccc(CN2CCOCC2)cc1 [Luminespib] (partner 0.01 µM)
// result 0.711

// query Then CCN(CC)CCCCNc1ncc2cc(-c3cc(OC)cc(OC)c3)c(NC(=O)NC(C)(C)C)nc2n1 + O=C(CCCCCCC(=O)Nc1ccccc1)NO [Vorinostat] (partner 1 µM) ?
// result 0.513

// query Also O=c1cc(N2CCOCC2)oc2c(-c3cccc4c3sc3ccccc34)cccc12 + COc1cccc2cc(-c3nc([C@H]4CC[C@H](C(=O)O)CC4)n4ncnc(N)c34)[nH]c12 [OSI-027] (partner 0.5 µM) ?
// result 0.65

// query CCN(CC)CCCCNc1ncc2cc(-c3cc(OC)cc(OC)c3)c(NC(=O)NC(C)(C)C)nc2n1 + NC(=O)Nc1cc(-c2cccc(F)c2)sc1C(=O)N[C@H]1CCCNC1 [AZD7762] (partner 0.2 µM) ?
// result 0.736

// query One more compound: O=c1cc(N2CCOCC2)oc2c(-c3cccc4c3sc3ccccc34)cccc12 + Cc1cc(Nc2cc(N3CCN(C)CC3)nc(Sc3ccc(NC(=O)C4CC4)cc3)n2)n[nH]1 [Tozasertib] (partner 0.1 µM)
// result 0.422

// query Follow-up item: O=c1cc(N2CCOCC2)oc2c(-c3cccc4c3sc3ccccc34)cccc12 + CCNC(=O)c1noc(-c2cc(C(C)C)c(O)cc2O)c1-c1ccc(CN2CCOCC2)cc1 [Luminespib] (partner 0.01 µM)
// result 0.855

// query Please do the same for O=c1cc(N2CCOCC2)oc2c(-c3cccc4c3sc3ccccc34)cccc12 + CC(C)C[C@H](NC(=O)[C@H](Cc1ccccc1)NC(=O)c1cnccn1)B(O)O [Bortezomib] (partner 0.002 µM) as well.
// result 0.995

// query What about this compound? O=c1cc(N2CCOCC2)oc2c(-c3cccc4c3sc3ccccc34)cccc12 + Nc1ncn([C@H]2C[C@H](O)[C@@H](CO)O2)c(=O)n1 [Decitabine] (partner 2 µM)
// result 0.266

Others:
// query Entry under review: O=c1cc(N2CCOCC2)oc2c(-c3cccc4c3sc3ccccc34)cccc12 + CS(=O)(=O)N1CCN(Cc2cc3nc(-c4cccc5[nH]ncc45)nc(N4CCOCC4)c3s2)CC1 [Pictilisib] (partner 1 µM) . Reported relative viability?
// result 0.909

// query Ok, now CCN(CC)CCCCNc1ncc2cc(-c3cc(OC)cc(OC)c3)c(NC(=O)NC(C)(C)C)nc2n1 + CC(C)C[C@H](NC(=O)[C@H](Cc1ccccc1)NC(=O)c1cnccn1)B(O)O [Bortezomib] (partner 0.002 µM)
// result 0.951

Data origin, for the record: the supplement of paper PMC10307832
